tested on: SF-539 CNS; experiment: NCI-60 one-dose screen, 48 h; settings: 10 µM unless noted
Compounds without any hit were thinned out: in the full panel of roughly 83,000, 20% have a hit. Calls of active or inactive are those of the source. The calls were made as follows: active = growth percent below 10; inactive = the rest.
Field 'call' accepts T for active, F for inactive

compound=Cc1ccc[n+](CC(=O)c2cccc3ccccc23)c1 label_value=F
compound=O=c1c2ccccc2sc2c(NCCN3CCOCC3)nc3ccccc3c12 label_value=F

Problem: // outcome(item) with item = COc1cc(NS(C)(=O)=O)ccc1Cc1c2ccccc2nc2ccccc12
Result: T

Problem: Query: recorded result category for O=C1C(SCCO)=C(SCCO)C(=O)N1c1ccc(-c2ccccc2)cc1 in this test
Result: F

Problem: Outcome? COc1ccc(C2=NN(C(=O)COc3ccc(Cl)cc3)C(O)(c3cc(F)c(Cl)cc3Cl)C2)cc1 (stereo not drawn)
Result: F
